assayed_target: PSMA Fab (anti-PSMA Fab; 006 PSMA Fab)
measurement_notes: phage binding ELISA; clonal phage supernatant on biotinylated PSMA Fab captured on neutravidin plate; anti-M13 HRP detection
Where no end group is shown, it is not given here.
attribute_measured: Phage binding ELISA signal, Anti-PSMA Fab
The answer should be a number; do not append a unit.

Reference set, count: 3
{"columns": ["binder", "numeric_readout"],
 "data": [
  ["WEKLCRPAWMCAAY (cysteine pairing not given here; also: fused to pIII, displayed on bacteriophage) [Phage-2738 (Peptide-180 library clone)]", 0.715],
  ["LYNRCTPAWMCTGF [Phage-2729 (Peptide-180 library clone)]", 0.738],
  ["DIKWCTPSWMCPAK [Phage-2733 (Peptide-180 library clone)]", 0.729]
]}

Entry WEKWCTPPWMCHDM [Phage-2732 (Peptide-180 library clone)] — recorded Phage binding ELISA signal, Anti-PSMA Fab = 0.733

Cited source for all entries: patent US20260242478A1
